Each entry below lists one item and its recorded z-score value.
target: NADPH oxidase 4 (Homo sapiens) (UniProt Q9NPH5); assay: compounds shifting NOX4 Amplex Red fluorescence – cell-based, HEK293-NOX4, tetracycline-induced, NOX inhibitor project, primary screen (AID 1160); conditions: HEK293-NOX4, Amplex Red H2O2 fluorescence, 45 min; higher = more signal, called active from +8 up or from −8 down
Sequence (Q9NPH5 whole entry, looked up): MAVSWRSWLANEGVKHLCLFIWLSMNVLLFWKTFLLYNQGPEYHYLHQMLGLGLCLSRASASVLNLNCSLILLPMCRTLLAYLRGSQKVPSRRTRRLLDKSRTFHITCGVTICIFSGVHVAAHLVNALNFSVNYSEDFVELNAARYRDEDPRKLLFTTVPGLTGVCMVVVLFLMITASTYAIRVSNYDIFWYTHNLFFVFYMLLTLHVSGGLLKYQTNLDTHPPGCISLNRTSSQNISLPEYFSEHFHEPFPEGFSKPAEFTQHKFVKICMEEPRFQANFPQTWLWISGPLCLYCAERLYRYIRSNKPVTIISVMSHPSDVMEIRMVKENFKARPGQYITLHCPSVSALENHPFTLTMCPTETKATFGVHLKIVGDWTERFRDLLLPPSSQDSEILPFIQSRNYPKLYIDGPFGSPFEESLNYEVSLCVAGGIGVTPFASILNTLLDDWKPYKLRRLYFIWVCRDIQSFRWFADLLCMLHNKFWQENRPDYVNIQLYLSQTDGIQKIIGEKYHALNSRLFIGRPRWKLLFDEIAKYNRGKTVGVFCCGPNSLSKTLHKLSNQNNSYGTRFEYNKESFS
Active and inactive are the calls of the source.

Field: example entries. Status: answers known.
>>> df
                                   compound                         target_under_test      readout_value
0  C=CCN1C(=O)[C@]2(Cc3ccccc31)N=C(c1ccc(OCCCO)cc1)O[C@@H]2c1ccccc1  NADPH oxidase 4 (Homo sapiens) (UniProt Q9NPH5)   0.273 (inactive)
1  CN(C)CCCN1C(=O)[C@@]2(c3ccc([N+](=O)[O-])cc3)CC(=O)N(C3CCCCC3)[C@@H]2c2ccc(CO)cc21  NADPH oxidase 4 (Homo sapiens) (UniProt Q9NPH5)   0.632 (inactive)
2  O=C(NCc1ccccc1)[C@@H]1c2ccccc2C(=O)N(C2CCCCC2)[C@H]1c1ccc(CO)cc1  NADPH oxidase 4 (Homo sapiens) (UniProt Q9NPH5)   0.684 (inactive)
3  O=C1C2C=CC(C(O)C3CC=CCC3)N(n3cnnc3)C2C(=O)N1Cc1ccccc1 (stereo not drawn)  NADPH oxidase 4 (Homo sapiens) (UniProt Q9NPH5)   -1.61 (inactive)
4  COC(=O)[C@@]1(Cc2ccc(OC)cc2)[C@H]2c3cc(C(=O)N4CCCC4)n(CCN4CCOCC4)c3C[C@H]2CN1C(=O)c1ccccc1  NADPH oxidase 4 (Homo sapiens) (UniProt Q9NPH5)  -0.245 (inactive)
5  CCCCCCC#C[Si](O[C@H](c1ccccc1)c1cn([C@H](C)c2ccccc2)nn1)(C(C)C)C(C)C  NADPH oxidase 4 (Homo sapiens) (UniProt Q9NPH5)  -0.749 (inactive)

Give recorded z-score. CCCCCCCCCCC(O)C1C=CC2C(=O)N(c3ccccc3)C(=O)C2N1Nc1ccc([N+](=O)[O-])cc1 (stereo not drawn)
-0.243 (inactive)

Report z-score for Oc1ccc2cc[n+](Cc3cccc(OC(F)(F)F)c3)cc2c1
-0.554 (inactive)

* * *

experiment: probe aInhba binding on compound microarray – biochemical, small-molecule microarray, 635/667 nm fluorescence, primary screen (AID 1148); settings: higher = more signal;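 further: score merges 667nm spot fluorescence with signal-to-noise for antibody binding to printed compounds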
Entries and their measured composite z-score follow.
Could you respond with only the numeric value?

// below: answered compounds
molecule	composite z-score
COc1ccc([Si](C)(C)[C@@H]2[C@@H](CC(=O)N3Cc4ccccc4C[C@H]3CO)O[C@]3(C(=O)N(Cc4cccc(N5C(=O)COc6ccccc65)c4)c4ccccc43)[C@H]2C)cc1	-0.18
COc1ccccc1CN1C(=O)c2ccccc2[C@](Cc2ccccc2I)(C(=O)NC2CC2)[C@@H]1c1ccc(CO)cc1	0.0374
COC(=O)[C@@]1(Cc2ccc(F)cc2)[C@H]2c3cc(C(=O)N4CCCC4)n(CCc4ccc(OC)c(Br)c4)c3C[C@H]2CN1C(=O)c1ccccc1	0.431
COCCOC(=O)N1C(=O)[C@@]2(c3cc(C#CCCO)ccc31)[C@H](c1ccc(O)cc1)N1[C@H](c3ccccc3)[C@H](c3ccccc3)OC(=O)[C@H]1[C@@H]2C(=O)N1CCCCCCC1	0.62
CCOC(=O)C1=CC[C@@H](c2ccccc2)N(S(=O)(=O)c2ccc(C)cc2)[C@H]1c1ccc(C#N)cc1	0.066

Dear colleague, please send me the reported composite z-score for COC(=O)c1c(CC[C@@H](CO)NC(=O)Nc2ncn[nH]2)oc(C(=O)Cc2ccccc2)c1C(=O)OC when you can.
0.0342
